# SYSTEM: T1, CaBdf1 BD1 (GST-tagged, wild-type) (Candida albicans (strain SC5314 / ATCC …, UniProt Q5A4W8))
# T1 chain: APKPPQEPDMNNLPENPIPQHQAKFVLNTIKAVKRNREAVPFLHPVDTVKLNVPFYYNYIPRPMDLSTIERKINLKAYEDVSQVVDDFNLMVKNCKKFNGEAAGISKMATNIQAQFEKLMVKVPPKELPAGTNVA
# TEST METHOD NOTES: histone peptide array (Active Motif MODified), 1 uM GST-tagged bromodomain, anti-GST detection, normalized mean intensity
Numbered stars: 1 amine (or outer) side, 2 acyl side, 3 side chain; on linkers, the order of the positions; unused ones are H or OH. Square brackets hold non-standard residues; d marks the D form. Ends that are not written are not given here. Arg(Me2a) = CN(C)C(=N)NCCC[C@H](N)C(=O)O; Kac = CC(=O)NCCCC[C@H](N[*:1])C(=O)[*:2]; Lys(Me3) = C[N+](C)(C)CCCC[C@H](N)C(=O)O; Arg(Me2s) = CN=C(NC)NCCC[C@H](N)C(=O)O; Lys(Me2) = CN(C)CCCC[C@H](N)C(=O)O; pS = N[C@@H](COP(=O)(O)O)C(=O)O
ATTRIBUTE MEASURED: binding score

// query Tell me its binding score given EQKLISEEDLA (histone peptide post-translational modifications (acetyl, methyl, phospho, citrulline) listed in columns 4-7 and embedded in the sequence text; N-terminus free or acetylated in column 8) [c-myc tag] as the entry.
// result 1.01

// query Tell me its binding score given SGRGKGGKGLGKGGAKRHR (S G Rme2a G Kac G G K G L G K G G A K R H R) [H4 1-19] as the entry.
// result 0.0105

// query Tell me its binding score given SGRGKQGGK(Ac)ARAKAKSRSS [H2a 1-19] as the entry.
// result 0.0276

// query Tell me its binding score given PRKQLATKAA[Arg(Me2s)]K(Ac)[pS]APATGG [H3 16-35] as the entry.
// result 0.00145

// query Tell me its binding score given A[Arg(Me2a)]T[Kac]QTAR[Kac]STGGKAPRKQ as the entry.
// result 0.046

// query Tell me its binding score given ARTKQTARKSTGGKAPRKQ (A Rme2s T Kac Q T A Rme2s K S T G G K A P R K Q) as the entry.
// result 0.00363

// query Tell me its binding score given ARTKQTARKSTGGKAPRKQ (A Rme2s T Kme3 Q T A Rme2s K S T G G K A P R K Q) as the entry.
// result 0.0029

// query Tell me its binding score given A[Arg(Me2a)]T[Lys(Me3)]QTA[Arg(Me2s)][Lys(Me2)]STGGKAPRKQ as the entry.
// result 0.00326
